experimentalSystem: T1, cynomolgus CD3 epsilon/delta heterodimer, biotin labeled (cynomolgus, UniProt Q95LI8 22-105, biotin labeled)
T1 construct: bought (Acro Biosystems); also called Cyno CD3e/d
T1 sequence (chain, as listed by the source mutant, chain 1 of 2): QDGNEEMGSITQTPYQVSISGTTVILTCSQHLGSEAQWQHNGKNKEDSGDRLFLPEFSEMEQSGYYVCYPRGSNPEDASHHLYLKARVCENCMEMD
T1 sequence (Q95LI8 22-105, stated change not applied, chain 2 of 2): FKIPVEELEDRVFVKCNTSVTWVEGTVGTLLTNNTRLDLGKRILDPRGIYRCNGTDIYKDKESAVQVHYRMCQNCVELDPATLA
protocolNotes: SPR, biotinylated CD3e/d on SA chip;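 also: analytes injected over immobilized CD3 heterodimer, association 60-120 s and dissociation 120-420 s, rate and affinity constants obtained by fitting sensorgrams to a 1:1 binding model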
Known koff of a selection of binders

binder: ULBP2xCD3 bispecific CD58 fusion containing CD3 variant CD3-A9 (bispecific antibody, V domains shown) VH: EVQLLESGGGLVQPGGSLKLSCAASGFTFNTYAMNWVRKAPGKGLEWVARIRSKYNNYATYYADSVKDRFTISRDDSKNTAYLQMNNLKTEDTAVYYCVRHGSFGNSYVSWFAYWGQGTLVTVSS VL: ELVVTQEPSLTVSPGGTVTLTCRSSTGAVTTSNYANWVQDKPGQAPRGLIGGTNKRAPGTPARFSGSLLGGKAALTLSGVQPEDEAEYYCALWYSQLWVFGGGTKLTVL
koff, s⁻¹: 0.0718

binder: ULBP2xCD3 bispecific CD58 fusion containing CD3 variant CD3-A5 (bispecific antibody, V domains shown) VH: EVQLLESGGGLVQPGGSLKLSCAASGFTFNTYAMNWVRKAPGKGLEWVARIRSKYNNYATYYADSVKDRFTISRDDSKNTAYLQMNNLKTEDTAVYYCVRHGNFGDDYVSWFAYWGQGTLVTVSS VL: ELVVTQEPSLTVSPGGTVTLTCRSSTGAVTTSNYANWVQDKPGQAPRGLIGGTNKRAPGTPARFSGSLLGGKAALTLSGVQPEDEAEYYCALWYSQLWVFGGGTKLTVL
koff, s⁻¹: 0.0337

binder: ULBP2xCD3 bispecific CD58 fusion containing CD3 variant CD3-A2 (bispecific antibody, V domains shown) VH: EVQLLESGGGLVQPGGSLKLSCAASGFTFNTYAMNWVRKAPGKGLEWVARIRSKYNNYATYYADSVKDRFTISRDDSKNTAYLQMNNLKTEDTAVYYCVRHGNFGNSYVSWFAYWGQGTLVTVSS VL: ELVVTQEPSLTVSPGGTVTLTCRSSTGAVTTSNYANWVQDKPGQAPRGLIGDTNKRAPGTPARFSGSLLGGKAALTLSGVQPEDEAEYYCALWYSNLWVFGGGTKLTVL
koff, s⁻¹: 0.0227

binder: ULBP2xCD3 bispecific CD58 fusion containing CD3 variant CD3-A6 (bispecific antibody, V domains shown) VH: EVQLLESGGGLVQPGGSLKLSCAASGFTFNDYAMNWVRKAPGKGLEWVARIRSKYNNYATYYADSVKDRFTISRDDSKNTAYLQMNNLKTEDTAVYYCVRHGNFGNSYVSWFAYWGQGTLVTVSS VL: ELVVTQEPSLTVSPGGTVTLTCRSSTGAVTTSNYANWVQDKPGQAPRGLIGGTNKRAPGTPARFSGSLLGGKAALTLSGVQPEDEAEYYCALWYSNLWVFGGGTKLTVL
koff, s⁻¹: 0.0418

binder: ULBP2xCD3 bispecific CD58 fusion containing CD3 variant CD3-01 (bispecific antibody, V domains shown) VH: EVQLLESGGGLVQPGGSLKLSCAASGFTFNTYAMNWVRKAPGKGLEWVARIRSKYNNYATYYADSVKDRFTISRDDSKNTAYLQMNNLKTEDTAVYYCVRHGNFGNSYVSWFAYWGQGTLVTVSS VL: ELVVTQEPSLTVSPGGTVTLTCRSSTGAVTTSNYANWVQDKPGQAPRGLIGGTNKRAPGTPARFSGSLLGGKAALTLSGVQPEDEAEYYCALWYSNLWVFGGGTKLTVL
koff, s⁻¹: 0.00515

binder: ULBP2xCD3 bispecific CD58 fusion containing CD3 variant CD3-A8 (bispecific antibody, V domains shown) VH: EVQLLESGGGLVQPGGSLKLSCAASGFTFNTYAMNWVRKAPGKGLEWVAKIRSKYNNYATYYADSVKDRFTISRDDSKNTAYLQMNNLKTEDTAVYYCVRHGNFGDSYVSWFAYWGQGTLVTVSS VL: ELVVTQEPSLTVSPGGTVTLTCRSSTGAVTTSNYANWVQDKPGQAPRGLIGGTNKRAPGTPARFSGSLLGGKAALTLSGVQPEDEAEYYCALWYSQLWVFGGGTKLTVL
koff, s⁻¹: 0.0614
